Value source: paper PMC9838217

Molecular target: SALL4 ZFC4 G921D (HT-SELEX) (Mus musculus, UniProt Q8BX22 870-940, G921D)
Sequence: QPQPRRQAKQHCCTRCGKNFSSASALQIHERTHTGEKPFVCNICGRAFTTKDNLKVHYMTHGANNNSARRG
Experiment: HT-SELEX; high values mean tight binding
Details: protein: recombinant; vector His6-GST; dsDNA, one strand shown
Define the label as Condition met when binding signal is strictly less than 1 fold-change vs cycle 0 and as Condition not met in all remaining cases.

residue-string	class-name
AGATAC	Condition not met
TCGAAA	Condition not met
CACAAG	Condition met
GCAGAA	Condition met
GAAGCA	Condition met
AGGCTC	Condition met
ACATGC	Condition met
CAGTTC	Condition met
GTACCA	Condition met
AGATCC	Condition not met

* * *

Listed below: binding signal values for each entry.
Target: SALL4 ZFC4 G921D (HT-SELEX) (Mus musculus, UniProt Q8BX22 870-940, G921D)
Sequence: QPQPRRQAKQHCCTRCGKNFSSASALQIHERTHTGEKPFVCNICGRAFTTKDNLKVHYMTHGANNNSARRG
Assay: HT-SELEX; high values mean tight binding
Conditions: protein: recombinant; vector His6-GST; dsDNA, one strand shown

residue-string	target-or-test-system	binding signal [fold-change vs cycle 0]
AAAGTC	SALL4 ZFC4 G921D (HT-SELEX) (Mus musculus, UniProt Q8BX22 870-940, G921D)	1.24
AAAGTA	SALL4 ZFC4 G921D (HT-SELEX) (Mus musculus, UniProt Q8BX22 870-940, G921D)	1.73
ACACCC	SALL4 ZFC4 G921D (HT-SELEX) (Mus musculus, UniProt Q8BX22 870-940, G921D)	0.581
ATAATG	SALL4 ZFC4 G921D (HT-SELEX) (Mus musculus, UniProt Q8BX22 870-940, G921D)	1.81
GCGAGC	SALL4 ZFC4 G921D (HT-SELEX) (Mus musculus, UniProt Q8BX22 870-940, G921D)	0.229
CGTGGA	SALL4 ZFC4 G921D (HT-SELEX) (Mus musculus, UniProt Q8BX22 870-940, G921D)	0.54
CGCTAG	SALL4 ZFC4 G921D (HT-SELEX) (Mus musculus, UniProt Q8BX22 870-940, G921D)	0.465
CTCTGC	SALL4 ZFC4 G921D (HT-SELEX) (Mus musculus, UniProt Q8BX22 870-940, G921D)	0.522
CATGTA	SALL4 ZFC4 G921D (HT-SELEX) (Mus musculus, UniProt Q8BX22 870-940, G921D)	1.35
CGATTC	SALL4 ZFC4 G921D (HT-SELEX) (Mus musculus, UniProt Q8BX22 870-940, G921D)	0.84
CGTATC	SALL4 ZFC4 G921D (HT-SELEX) (Mus musculus, UniProt Q8BX22 870-940, G921D)	0.89
ACAATA	SALL4 ZFC4 G921D (HT-SELEX) (Mus musculus, UniProt Q8BX22 870-940, G921D)	1.71
CTCGAC	SALL4 ZFC4 G921D (HT-SELEX) (Mus musculus, UniProt Q8BX22 870-940, G921D)	0.539
ATCAAC	SALL4 ZFC4 G921D (HT-SELEX) (Mus musculus, UniProt Q8BX22 870-940, G921D)	1.42
GCTGCA	SALL4 ZFC4 G921D (HT-SELEX) (Mus musculus, UniProt Q8BX22 870-940, G921D)	0.379
CATCTA	SALL4 ZFC4 G921D (HT-SELEX) (Mus musculus, UniProt Q8BX22 870-940, G921D)	1.38
CGATAG	SALL4 ZFC4 G921D (HT-SELEX) (Mus musculus, UniProt Q8BX22 870-940, G921D)	0.851
CAAGCG	SALL4 ZFC4 G921D (HT-SELEX) (Mus musculus, UniProt Q8BX22 870-940, G921D)	0.452
GAGCCC	SALL4 ZFC4 G921D (HT-SELEX) (Mus musculus, UniProt Q8BX22 870-940, G921D)	0.331
ATAGAA	SALL4 ZFC4 G921D (HT-SELEX) (Mus musculus, UniProt Q8BX22 870-940, G921D)	1.83
ACGCAG	SALL4 ZFC4 G921D (HT-SELEX) (Mus musculus, UniProt Q8BX22 870-940, G921D)	0.422
CCGATA	SALL4 ZFC4 G921D (HT-SELEX) (Mus musculus, UniProt Q8BX22 870-940, G921D)	0.816
CTGATA	SALL4 ZFC4 G921D (HT-SELEX) (Mus musculus, UniProt Q8BX22 870-940, G921D)	1.36
